These entries and their values trace back to PubChem BioAssay (NCI).

# System: UO-31 renal
# assayText: NCI-60 one-dose screen, 48 h
# settings: 10 µM unless noted
Compounds without any hit were thinned out: in the full panel of roughly 83,000, 20% have a hit. Activity calls are given as the source filed them. How the source made its calls: active means growth percent below 10; inactive means the rest.
Labels: active, inactive

{"columns": ["compound", "category"],
 "data": [
  ["N/C(=N\\c1nc2ccccc2s1)NC(=O)NCCCCCCO", "inactive"],
  ["COc1ccc2[nH]c(O)c(N=NC(=O)Cn3c(-c4ccccc4)nc4cc(C)ccc43)c2c1", "inactive"],
  ["CC1(c2cc3cc(Br)ccc3oc2=O)NC(=O)c2c(/C=C/C(=O)OC3CC4CCC3(C)C4(C)C)cccc2N1 (configuration not stated)", "inactive"],
  ["CCCCCCCCc1ccc(S(=O)(=O)Nc2ccc(CC)cc2C(=O)O)cc1", "inactive"],
  ["Cc1ccc([C@H]2C(C(=O)c3ccc(Cl)cc3)C3(N[C@@H]2c2ccccc2)C(=O)Nc2ccc(Br)cc23)cc1 (some centres not stated)", "inactive"],
  ["CCCCCCCCc1ccc(C(=O)Nc2cccc(P(=O)(O)O)c2)cc1", "inactive"],
  ["CCCCc1c(Nn2cnnn2)no[n+]1[O-]", "inactive"],
  ["CC(=O)Nc1cccc(Nc2nc(N[C@H]3CCCc4ccccc43)c3ccccc3n2)c1", "inactive"],
  ["COCOc1ccc2c(=O)c(C)c(C(=O)N[C@@H](Cc3ccccc3)C(O)C(=O)NCCc3ccc(OC)cc3)oc2c1 (some centres not stated)", "active"],
  ["N/C(=N\\c1nc2ccccc2s1)NC(=O)Nc1c(Cl)cccc1Cl", "inactive"],
  ["O=C1Nc2ccc([N+](=O)[O-])cc2C1=Nc1ccccc1", "inactive"],
  ["CC(C)CSc1nc(NCCc2c[nH]c3ccccc23)c(C#N)c(-c2ccc(Cl)cc2)n1", "inactive"],
  ["CCCCCCn1c(O)c(N=Nc2nc(-c3cc4ccccc4oc3=O)cs2)c2ccccc21", "inactive"],
  ["Cc1ccc(-c2nc(Nc3ccccc3S(N)(=O)=O)c3ccccc3n2)cc1", "inactive"],
  ["N#Cc1c(-c2cccc(O)c2O)cc(-c2ccc3ccccc3c2)[nH]c1=O", "inactive"],
  ["O=C(O)c1cccc(-c2ccc(/C=N/NC(=O)c3[nH]c4ccc(Br)cc4c3-c3ccccc3)s2)c1", "inactive"],
  ["C#CCOc1cc(N(CC)CC)ccc1C(C(=O)NC(C)(C)C)N(C(=O)C1CCc2cc(F)ccc2O1)c1ccccc1F (configuration not stated)", "inactive"],
  ["CC(C)CSc1nc(NCCc2c[nH]c3ccccc23)c(C#N)c(-c2ccc(F)cc2)n1", "inactive"],
  ["C=C1CCC2C3(C)COC(c4cccc(F)c4)OC3CCC2(C)C1C/C=C1/C(=O)OCC1O (configuration not stated)", "active"],
  ["O=C(COc1ccc(NC(=O)Nc2ccc(Cl)c(Cl)c2)cc1)N=Nc1c(O)[nH]c2ccccc12", "inactive"],
  ["Cc1ccc(-n2c(-c3cc4ccccc4nc3Cl)noc2=O)cc1", "inactive"],
  ["C=C1CC[C@@H]2[C@]3(C)COC(c4cn[nH]c4-c4ccc(OC)cc4)O[C@@H]3CC[C@@]2(C)[C@@H]1C/C=C1/C(=O)OCC1O (some centres not stated)", "active"],
  ["C=C1CCC2C3(C)COC(c4cccs4)OC3CCC2(C)C1CC(Sc1ccccc1)C1=CCOC1=O (configuration not stated)", "inactive"],
  ["Cc1ccc(C(=O)C(c2c[nH]c3ccccc23)c2c[nH]c3ccccc23)cc1", "inactive"],
  ["N#Cc1c(-c2cccc3ccccc23)cc(-c2cccc(OCC(=O)O)c2)[nH]c1=O", "inactive"],
  ["O=C(CN1C(=O)/C(=C/c2ccccc2F)SC1=S)N1CCOCC1", "inactive"],
  ["O=C(c1ccc(OCCN2CCOCC2)cc1)C1[C@H](c2ccc(Cl)cc2)[C@@H](c2ccccc2)NC12C(=O)Nc1ccc(Br)cc12 (some centres not stated)", "inactive"],
  ["CC(=O)OC[C@@]1(C)C2CC[C@]3(C)C(CC=C4C5CC(C)(C)CC[C@]5(C(=O)Nc5ccc(F)cc5)CC[C@]43C)[C@@]2(C)C[C@@H](OC(C)=O)[C@@H]1OC(C)=O (some centres not stated)", "inactive"],
  ["COc1ccc(-c2ccnc(SCc3cc4cc(OC)ccc4[nH]c3=O)n2)cc1", "inactive"],
  ["C=C1CCC2C3(C)COC(c4cc(F)cc(F)c4)OC3CCC2(C)C1CC(O)C1=CCOC1=O (configuration not stated)", "inactive"],
  ["CCCCSc1nc(Nc2ccc(S(N)(=O)=O)cc2)c(C#N)c(-c2ccc(Cl)cc2)n1", "inactive"],
  ["CCN(CC)C(=O)N/C(N)=N/c1nc2ccccc2s1", "inactive"],
  ["O=C(c1ccccc1)c1ccc2nc(-c3ccc(F)cc3)[nH]c2c1", "inactive"],
  ["COc1c(F)ccc(C(=O)Nc2ccc3nc(NC(=O)C4CCCN(S(=O)(=O)C5CC5)C4)sc3c2)c1F (configuration not stated)", "inactive"],
  ["Cn1nc(C(F)(F)F)cc1-c1cc(Cl)c(COc2ccc(Cl)cc2)c(-c2ccc(Cl)c(C(F)(F)F)c2)c1O", "active"],
  ["CNC(=O)c1cc(Oc2ccc3nc(NC(=O)Nc4cccc(OC(F)(F)F)c4)sc3c2)ccn1", "inactive"],
  ["COc1ccc(NC(=O)Nc2ccc(OCc3ccc(F)cc3)cc2)cc1", "inactive"]
]}
